B1: LINE1-full (parent)
chain: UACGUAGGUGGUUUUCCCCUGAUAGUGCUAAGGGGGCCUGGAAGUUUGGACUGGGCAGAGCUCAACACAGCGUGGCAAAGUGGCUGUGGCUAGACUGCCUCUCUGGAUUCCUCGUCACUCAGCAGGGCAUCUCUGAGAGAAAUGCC

variants of: B1; assay: self-cleavage, relative activity (ratio to wild type); higher = more cleavage; in vitro, sequencing; the parent is a self-cleaving ribozyme
MEASURED ENDPOINT: self-cleavage

The recorded self-cleavage for C76U U112A is 2.4

The recorded self-cleavage for A43G A67C is 0.05

The recorded self-cleavage for U1A U108C is 0.77

The recorded self-cleavage for U1A G25C is 1.2

The recorded self-cleavage for A78G A140G is 1.18

The recorded self-cleavage for A57U U134C is 0.12

The recorded self-cleavage for G53A A124U is 1.28

The recorded self-cleavage for C19A A124G is 0.58

The recorded self-cleavage for U13C U104C is 1.28

The recorded self-cleavage for C98U A140G is 0.57

The recorded self-cleavage for A6U U104G is 0.48

The recorded self-cleavage for C98U A107G is 0.46

The recorded self-cleavage for C16U C38U is 1.06

The recorded self-cleavage for A107G A138U is 1.44

The recorded self-cleavage for C18G A65U is 0.28

The recorded self-cleavage for U47C U112C is 2

The recorded self-cleavage for U52G U108C is 1.94

The recorded self-cleavage for A30U A121C is 0.55

The recorded self-cleavage for U13C U26C is 1.01

The recorded self-cleavage for G93A U112C is 0.06

The recorded self-cleavage for U115C G137U is 2.16

The recorded self-cleavage for G53A A117G is 2.04

Reference source for all entries: the RNAGym collection of RNA variant scans (doi:10.7554/elife.90254)
